# System: PC-14
# Assay comment: relative viability (nuclei count vs DMSO), 5 days (fraction); higher = more cells survive
# Settings: first compound 0.03162 µM
Measure: relative viability
Give the value as a plain number.

>>> value_observed("Cc1cn(-c2cc(NC(=O)c3ccc(C)c(Nc4nccc(-c5cccnc5)n4)c3)cc(C(F)(F)F)c2)cn1 [Nilotinib] + O=C(CCCCCCC(=O)Nc1ccccc1)NO [Vorinostat] (partner 1 µM)")
0.604

Provide the reported relative viability (system: PC-14) for Cc1cn(-c2cc(NC(=O)c3ccc(C)c(Nc4nccc(-c5cccnc5)n4)c3)cc(C(F)(F)F)c2)cn1 [Nilotinib] + CS(=O)(=O)N1CCN(Cc2cc3nc(-c4cccc5[nH]ncc45)nc(N4CCOCC4)c3s2)CC1 [Pictilisib] (partner 1 µM)
0.503
